Measured property: melting point

>>> obs_value("C#CCn1c(=O)n(-c2ccccc2)c2ccccc21")
"145 to 147 °C"
>>> obs_value("CC1(C)OCC(COC(=O)Cc2cccc3c(=O)cc(C4=CCCCC4)oc23)O1 (centres undefined)")
"104 to 105 °C"
>>> obs_value("CCc1nc2nccc(-c3cccnc3)n2n1")
"147 to 149 °C"
>>> obs_value("CNc1ncc2c(-c3cccc(Cl)c3)cc(-c3cccc(CC(=O)O)c3)c(OC)c2n1")
"258 to 261 °C"
>>> obs_value("CCOC(=O)C1(C)C=C(Cl)C2=NCN(C)C2=N1 (centres undefined)")
"56 to 58 °C"
>>> obs_value("C=CCc1c(OCOC)cc(OCOC)c(C(=O)C=Cc2ccc(OCOC)cc2)c1O")
"68 to 69 °C"
>>> obs_value("Cn1cnc2c(Cl)nccc21")
"127 to 131 °C"
>>> obs_value("Cn1nc(C(F)(F)F)c(C(O)=C(Br)n2ccc(-c3c(F)cccc3F)n2)c1Cl")
"123 to 125 °C"
>>> obs_value("COC(=O)c1cc2c3c(Cl)cc(Cl)cc3n(C)c2s1")
"231 to 232 °C"
>>> obs_value("COc1ccc(S(=O)(=O)N(Cc2ccccc2)c2c(C(=O)O)cnc3c2c(C)nn3-c2ccccc2)cc1")
"207 to 210 °C"
>>> obs_value("COc1ccc(N2CCN(C3CN(C4c5c(C)cc(C)c(C)c5OC4(C)C)CCN3c3ccccc3)CC2)cc1 (centres undefined)")
"144 to 145 °C"
>>> obs_value("Nc1ccc([C@H]2CC[C@H](NCCCc3ccccc3)CC2)cc1")
"60 to 63 °C"
>>> obs_value("OCc1sc(Cl)nc1C(F)(F)F")
"39 to 45 °C"
>>> obs_value("CC(C)(C)OC(=O)N1CCCN(c2ccc(F)cc2)CC1")
"88 to 89 °C"

* * *

Listed next: entries and their corresponding melting point.
Measured property: melting point

>>> obs_value("CC1(C)CCC(C)(C)c2cc(-c3cc(-c4ccc(C(=O)O)cc4)ccc3OCc3ccccc3)ccc21")
"241 to 244 °C"
>>> obs_value("CC(C)(O)c1onc(-c2ccccc2Cl)c1C(=O)c1nnn(Cc2cc(F)cc(C(F)(F)F)c2)c1-c1cccnc1")
"180 °C"
>>> obs_value("CCCc1cccn2c(=O)c(-c3nnn[nH]3)cnc12")
"269 to 272 °C"

* * *

Listed next: entries and their corresponding melting point.
Measured property: melting point (°C)

>>> obs_value("CCn1cc(CN(C(=O)C2CCCc3c(OCCCN(C)C)cccc32)c2ccc(C(C)C)cc2)cn1 (centres undefined)")
143
>>> obs_value("CCCCOc1ccc2[nH]c(C(=O)O)cc2c1")
153
>>> obs_value("CCSc1c(O[C@@H]2CCC[C@H](N)C2)ccc2[nH]ncc12 (relative stereo)")
110

* * *

Listed next: entries and their corresponding melting point.
Measured property: melting point

>>> obs_value("CC(=O)NC[C@H]1CN(c2ccc(-c3ccncc3)c(F)c2)C(=O)O1")
"179 to 180 °C"
>>> obs_value("CCCCCCCCCCCCCCOc1ccc([N+](=O)[O-])cc1OCCCCCCCCCCCCCC")
"64 to 66 °C"
>>> obs_value("CNCCNC(=NCCSCc1[nH]cnc1C)NC#N")
"146 to 148 °C"
>>> obs_value("COC1NC(=O)C(OC)(OC)C1Cl (stereo not drawn)")
"141 to 142 °C"
>>> obs_value("Cc1cccc(/C(N)=C2\\Sc3ccccc3C2=O)c1")
"114 to 115 °C"
>>> obs_value("Cc1cc(C(=O)OC(C)(C)C)ccc1[N+](=O)[O-]")
"56 to 58 °C"
>>> obs_value("Nc1nc(Nc2cccnc2)sc1C(=O)c1ccc(Cl)cc1Cl")
"209 to 210 °C"
>>> obs_value("N#CNc1ccccc1-c1ccccc1F")
"68 to 69 °C"
>>> obs_value("COC(=O)c1cccc(F)c1C=NC(C)(C(N)=O)C(C)C (stereo not drawn)")
"125 to 131 °C"
>>> obs_value("Cn1c(C(F)(F)F)nn(-c2cc(F)c(C#N)cc2Cl)c1=O")
"105 °C"
>>> obs_value("COc1cc2c(=O)c(C#N)c[nH]c2cc1NC(C)=O")
"305 to 310 °C"
>>> obs_value("O=C(O)Cc1c(C(=O)O)c2cc(Oc3ccc(C(F)(F)F)cc3)ccc2n1-c1ccc(OC(F)(F)F)cc1")
"257 to 259 °C"
>>> obs_value("Cc1oc(-c2ccc3ccccc3c2)nc1/C=C/c1ccc(CO)cc1")
"173 to 174 °C"
